Answer each item with its documented pKi.
- test-target: UniProt:P41145
- test-summary: κ opioid competitive radioligand binding
Expect pKi as a plain number equal to -log10 of the molar concentration.

# input Suppose we examine the compound COc1cc2c(cc1O)C(Cc1ccc(O)cc1)NCC2 (centres unmarked) [Compound 7, coclaurine] ; what pKi value has been reported?
# output 5.66

# input Suppose we examine the compound COc1ccc(C[C@@H]2c3cc(Oc4cc(C[C@@H]5c6cc(OC)c(OC)cc6CCN5C)ccc4O)c(OC)cc3CCN2C)cc1 [Compound 10, neferine] ; what pKi value has been reported?
# output 5.48

----------
- test-target: δ opioid receptor (Homo sapiens, UniProt P41143)
- test-summary: δ opioid competitive radioligand binding
value-type: pKi
Expect pKi as a plain number equal to -log10 of the molar concentration.

# input Suppose we examine the molecule "COc1ccc(C[C@@H]2c3cc(Oc4cc(C[C@@H]5c6cc(OC)c(OC)cc6CCN5C)ccc4O)c(OC)cc3CCN2C)cc1" ; what pKi value has been reported?
# output 6.15

# input Suppose we examine the molecule COc1cc2c(cc1O)C(Cc1ccc(O)cc1)NCC2 (stereo not shown) ; what pKi value has been reported?
# output 4.68

# input Suppose we examine the molecule "CCCCC/C=C\C/C=C\CCCCCCCC(=O)O" ; what pKi value has been reported?
# output 4.84
